Data origin, for the record: patent US8815852B2

Each entry below carries its reported inhibition in vivo at 10 mg/kg.
Tested on: male ICR mouse
procedure_text: Acetic acid-induced writhing test in mouse
Type: in vivo
settings: Mus musculus, po, 1 h, at 10 po (method: 10 mg/kg oral, 1 hour before acetic acid); read-out: AA Writhing: Suppression ratio of Pain response
experimental_endpoint: inhibition in vivo at 10 mg/kg

{"compound": "NC(=O)OC(CCN1CCN(c2ccc(OC3CCCC3)cc2)CC1)c1ccccc1 (stereo not drawn)", "obs_value": "58%"}
{"compound": "Cc1ccc(N2CCN(CCC(OC(N)=O)c3ccccc3)CC2)c(C)c1 (stereo not drawn)", "obs_value": "34%"}
{"compound": "CC(C)(C)c1ccc(C(CCN2CCN(c3ccccc3)CC2)OC(N)=O)cc1 (stereo not drawn)", "obs_value": "62%"}
{"compound": "NC(=O)OC(CCN1CCN(c2ccc(OCc3ccccc3)cc2)CC1)c1ccccc1 (stereo not drawn)", "obs_value": "58%"}
{"compound": "COc1ccc(N2CCN(CCC(OC(N)=O)c3ccc(Cl)cc3Cl)CC2)cc1 (stereo not drawn)", "obs_value": "16%"}
{"compound": "NC(=O)OC(CCN1CCN(c2ncccn2)CC1)c1ccccc1 (stereo not drawn)", "obs_value": "21%"}
{"compound": "Cc1ccc(N2CCN(C(C)CC(OC(N)=O)c3ccccc3)CC2)cc1C (stereo not drawn)", "obs_value": "95%"}
{"compound": "NC(=O)OC(CCN1CCN(c2ccc(Cl)c(C(F)(F)F)c2)CC1)c1ccccc1 (stereo not drawn)", "obs_value": "52%"}
{"compound": "NC(=O)OC(CCN1CCN(c2ccc(Cl)c(Cl)c2)CC1)c1ccccc1 (stereo not drawn)", "obs_value": "85%"}

* * *

target: 5-HT2A receptor (Rattus norvegicus (Rat), UniProt P14842)
Sequence (P14842 whole entry): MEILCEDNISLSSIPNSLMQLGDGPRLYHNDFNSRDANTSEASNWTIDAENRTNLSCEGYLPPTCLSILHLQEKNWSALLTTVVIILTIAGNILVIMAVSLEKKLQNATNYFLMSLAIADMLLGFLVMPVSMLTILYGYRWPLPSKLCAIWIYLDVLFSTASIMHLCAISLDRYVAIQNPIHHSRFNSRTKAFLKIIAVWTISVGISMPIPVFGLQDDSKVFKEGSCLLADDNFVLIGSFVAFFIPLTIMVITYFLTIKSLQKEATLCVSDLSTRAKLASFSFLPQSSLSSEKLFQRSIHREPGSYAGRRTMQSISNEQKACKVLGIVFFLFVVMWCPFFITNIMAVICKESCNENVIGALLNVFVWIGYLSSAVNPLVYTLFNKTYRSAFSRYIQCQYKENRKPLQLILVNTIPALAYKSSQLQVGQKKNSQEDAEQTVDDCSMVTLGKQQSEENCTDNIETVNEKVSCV
pIC50: −log10 of the molar value.
Assign Criterion met to entries whose pIC50 meets or exceeds 6; assign Criterion not met to the rest.

{"compound": "NC(=O)OC(CCN1CCN(c2ccccc2F)CC1)c1ccccc1 (centres unmarked)", "discrete_label": "Criterion met"}
{"compound": "NC(=O)OC(CCCN1CCN(c2ccccn2)CC1)c1ccccc1 (centres unmarked)", "discrete_label": "Criterion not met"}
{"compound": "NC(=O)OC(CCCN1CCN(c2ccccc2)CC1)c1ccccc1 (centres unmarked)", "discrete_label": "Criterion met"}
{"compound": "COc1ccc(N2CCN(CC[C@@H](OC(N)=O)c3ccccc3)CC2)cc1", "discrete_label": "Criterion not met"}

* * *

Each entry below carries its reported inhibition in vivo at 10 mg/kg.
Test system: male ICR mouse
procedure_text: Acetic acid-induced writhing test in mouse
Format: in vivo
settings: Mus musculus, po, 1 h, at 10 po (method: 10 mg/kg oral, 1 hour before acetic acid); read-out: AA Writhing: Suppression ratio of Pain response
experimental_endpoint: inhibition in vivo at 10 mg/kg (%)

{"molecule": "COc1ccc(N2CCN(CCC(OC(N)=O)c3cc(C)ccc3C)CC2)cc1 (stereo not shown)", "obs_value": 62}
{"molecule": "COc1ccc(N2CCN(C(C)CC(OC(N)=O)c3ccccc3)CC2)cc1OC (stereo not shown)", "obs_value": 57}
{"molecule": "NC(=O)OC(CCN1CCN(c2ccccc2O)CC1)c1ccccc1 (stereo not shown)", "obs_value": 37}
{"molecule": "Cc1ccccc1N1CCN(CCC(OC(N)=O)c2ccc(F)cc2)CC1 (stereo not shown)", "obs_value": 29}
{"molecule": "COc1ccc(N2CCN(CCC(OC(N)=O)c3ccc(C(F)(F)F)cc3)CC2)cc1 (stereo not shown)", "obs_value": 95}
{"molecule": "NC(=O)OC(CCN1CCN(c2ccccc2)CC1)c1cccc([N+](=O)[O-])c1 (stereo not shown)", "obs_value": 48}
{"molecule": "CC(C)(C)C(=O)Oc1ccc(N2CCN(CCC(OC(N)=O)c3ccc(F)cc3)CC2)cc1 (stereo not shown)", "obs_value": 63}
{"molecule": "COc1ccc(Cl)cc1N1CCN(CCC(OC(N)=O)c2ccc(F)cc2)CC1 (stereo not shown)", "obs_value": 14}
{"molecule": "COc1ccc(N2CCN(CCC(OC(N)=O)c3cccc(C)c3)CC2)cc1 (stereo not shown)", "obs_value": 52}
{"molecule": "COc1ccc(N2CCN(CCC(OC(N)=O)c3ccccc3Cl)CC2)cc1 (stereo not shown)", "obs_value": 49}
{"molecule": "COc1ccc(N2CC(C)N(CC[C@@H](OC(N)=O)c3ccccc3)C(C)C2)cc1 (stereo partly shown)", "obs_value": 48}
{"molecule": "NC(=O)OC(CCN1CCN(c2ccc(C(F)(F)F)cc2[N+](=O)[O-])CC1)c1ccccc1 (stereo not shown)", "obs_value": 50}
{"molecule": "COc1ccc(N2CCN(CCC(OC(N)=O)c3ccccc3F)CC2)cc1 (stereo not shown)", "obs_value": 42}
